test: Toxicity liver stage against HepG2, at 10uM; type: cell-based; set-up: test concentration 10 uM, cell line HepG2-A16-CD81EGFP; settings: human, HepG2-A16-CD81EGFP cells; read-out: INHIBITION
Measured cytotoxicity at 10 µM accompanies every entry in the list below.
Answer with the number, then the unit.

# count of solved cases: 8
c1ncn(Cc2nnc(C3CCN(CC4CC4)CC3)n2C2CC2)n1
5.2%
CN(Cc1cccnc1)[C@@H]1CN(C(=O)c2ccno2)[C@@H]2CCCO[C@H]12
-118%
CNC(=O)c1cc2c(nc1NCC1CC1)CCNCC2
-0.966%
COCCN(C)C[C@@H]1CN(C(=O)c2ccoc2)C[C@@H]1CO
-18.4%
c1cc(CN2CCOCC3(CCN(CC4CCOCC4)CC3)C2)ccn1
-82.6%
CCc1nc(C2CCCN2C(=O)c2nccnc2N)no1 (configuration not stated)
-18.7%
COc1ccc(C(=O)N2CCOCC2c2ccc(C)o2)cc1 (configuration not stated)
-2.24%
NS(=O)(=O)CCNC(=O)c1cc2ccccc2nc1N1CCCC1
-10.7%

### Prompt // returns reported cytotoxicity at 10 µM for input CCOc1ccc(C(=O)NCc2ccnc(N3CCN(C)CC3)c2)cn1
### Response 0.935%
